Values from patent US12466821B2

Experimental System: human HSV DNA polymerase UL30 (Human herpesvirus 1 (strain 17) (HHV-1) (Human herpes simplex virus 1), UniProt P04293)
Method: HSV polymerase biochemical assay (molecular beacon-based)
Recorded Metric: log10 IC50 (log10 of the value in nM)
# log10 transformed; quantity=IC50; unit=nM

Previously resolved entries follow.
[[record]]
compound = "CS(=O)(=O)N1CCC1CN1CCn2c(ccc(C(=O)NCc3ccc(Cl)cc3)c2=O)C1=O (stereo not drawn) [Example 66]"
reading = 3.07

[[record]]
compound = "N#Cc1ccc(CNC(=O)c2ccc3n(c2=O)CCN(CC2(S(=O)(=O)[C@H]4CC4(F)F)CC2)C3=O)cc1Cl (single isomer, unassigned) [Example 102-1]"
reading = 2.30

[[record]]
compound = "O=C(NCc1ccc(Cl)cc1)c1ccc2n(c1=O)CCN(CCC1CCCS1(=O)=O)C2=O (stereo not drawn) [Example 50-1]"
reading = 2.27

[[record]]
compound = "CCc1cc(C(=O)NCc2ccc(Cl)cc2)c(=O)n2c1C(=O)N(CCN(C)S(C)(=O)=O)CC2 [Example 134]"
reading = 3.33

[[record]]
compound = "Cc1cc(C(=O)NCc2ccc(Cl)cc2)c(=O)n2c1C(=O)N(CC1(N(C)S(C)(=O)=O)CC1)CC2 [Example 149]"
reading = 3.34

[[record]]
compound = "COC(=O)N(C)CCN1CCn2c(ccc(C(=O)NCc3ccc(Cl)cc3)c2=O)C1=O [Example 61-1]"
reading = 4.03

[[record]]
compound = "CS(=O)(=O)NC1(CN2CCn3c(ccc(C(=O)NCc4ccc(Cl)cc4)c3=O)C2=O)CC1 [Example 198]"
reading = 3.18

[[record]]
compound = "O=C(NCc1ccc(Cl)cc1)c1ccc2n(c1=O)CCN(CCO)C2=O [Example 116]"
reading = 4.15

[[record]]
compound = "C[C@H](CCO)S(=O)(=O)C1(CN2CCn3c(ccc(C(=O)NCc4ccc(C#N)cc4)c3=O)C2=O)CC1 (single isomer, unassigned) [Example 9]"
reading = 1.87

[[record]]
compound = "N#Cc1ccc(CNC(=O)c2ccc3n(c2=O)CCN(CC2(S(=O)(=O)N4CCC4)CC2)C3=O)cc1F [Example 88-1]"
reading = 1.81


Exercise: Reported log10 IC50, compound CC(C)(C)NS(=O)(=O)C1(CN2CCn3c(ccc(C(=O)NCc4ccc(C#N)cc4)c3=O)C2=O)CC1 [Example 73-1] : ____
Solution: 1.67

Exercise: Reported log10 IC50, compound CC(C)(c1ncno1)S(=O)(=O)C1(CN2CCn3c(ccc(C(=O)NCc4ccc(C#N)cc4)c3=O)C2=O)CC1 [Example 179] : ____
Solution: 1.23

Exercise: Reported log10 IC50, compound O=C(NCc1ccc(Cl)cc1)c1ccc2n(c1=O)CCN(CC1(S(=O)(=O)CCCO)CC1)C2=O [Example 25] : ____
Solution: 1.91

Exercise: Reported log10 IC50, compound CN(CCN1CCn2c(c(C#N)cc(C(=O)NCc3ccc(Cl)cc3)c2=O)C1=O)S(C)(=O)=O [Example 127] : ____
Solution: 3.68

Exercise: Reported log10 IC50, compound CN1CCC(S(=O)(=O)C2(CN3CCn4c(ccc(C(=O)NCc5ccc(Cl)cc5)c4=O)C3=O)CC2)C1 (stereo not drawn) [Example 80-2] : ____
Solution: 2.25
